- Study System: T1, ST2 on the effector cells (KU812, KU812/NF-κB-1#, HUVEC, HMC-1) (human, UniProt Q01638 19-556)
- T1 sequence (looked up): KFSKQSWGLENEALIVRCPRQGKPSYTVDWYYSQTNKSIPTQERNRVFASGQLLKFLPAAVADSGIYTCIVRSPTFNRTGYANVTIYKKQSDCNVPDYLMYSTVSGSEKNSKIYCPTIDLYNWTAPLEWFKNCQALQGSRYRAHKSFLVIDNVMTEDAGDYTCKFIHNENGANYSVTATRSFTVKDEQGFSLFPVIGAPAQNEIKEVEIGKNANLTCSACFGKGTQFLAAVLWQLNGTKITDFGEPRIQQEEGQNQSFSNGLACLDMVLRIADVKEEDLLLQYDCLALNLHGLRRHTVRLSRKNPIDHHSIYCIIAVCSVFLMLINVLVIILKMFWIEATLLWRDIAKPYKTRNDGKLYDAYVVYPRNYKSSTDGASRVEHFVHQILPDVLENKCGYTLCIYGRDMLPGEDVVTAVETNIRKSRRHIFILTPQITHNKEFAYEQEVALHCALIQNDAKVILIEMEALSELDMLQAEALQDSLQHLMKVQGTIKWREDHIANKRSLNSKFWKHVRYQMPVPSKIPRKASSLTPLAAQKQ
- Procedure Text: cell-based or functional assay
Property: Relative activity, KU812-IL5 production by oxidized IL33 (%)
Number only, in %; omit the unit.

[
  {
    "Binder": "5888-153-H0L1 (antibody, human IgG4 S228P, kappa, V domains shown, Humanized antibody) VH: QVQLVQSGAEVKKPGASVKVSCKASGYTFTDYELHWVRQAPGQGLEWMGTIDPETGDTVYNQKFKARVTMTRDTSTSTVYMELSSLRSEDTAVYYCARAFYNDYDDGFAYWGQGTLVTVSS VL: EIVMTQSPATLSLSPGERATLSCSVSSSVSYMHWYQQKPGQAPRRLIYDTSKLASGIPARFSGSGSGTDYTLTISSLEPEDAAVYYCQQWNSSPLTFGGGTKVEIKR",
    "Value": 150
  },
  {
    "Binder": "Control antibody CNTO7160 (antibody, human IgG4 S228P, kappa, V domains shown, Known anti-ST2 control antibody) VH: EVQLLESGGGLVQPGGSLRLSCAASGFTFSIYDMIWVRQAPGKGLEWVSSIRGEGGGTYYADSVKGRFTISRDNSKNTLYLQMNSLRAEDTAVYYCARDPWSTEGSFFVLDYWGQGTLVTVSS VL: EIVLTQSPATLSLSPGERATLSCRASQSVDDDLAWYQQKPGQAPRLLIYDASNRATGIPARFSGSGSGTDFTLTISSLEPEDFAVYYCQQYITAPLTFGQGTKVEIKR",
    "Value": 100
  }
]

Consider the binder 5888-379-H1L0 (antibody, human IgG4 S228P, kappa, V domains shown, Humanized antibody) VH: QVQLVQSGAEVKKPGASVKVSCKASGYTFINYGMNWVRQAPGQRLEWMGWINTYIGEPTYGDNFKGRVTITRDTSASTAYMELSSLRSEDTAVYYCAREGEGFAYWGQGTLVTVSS VL: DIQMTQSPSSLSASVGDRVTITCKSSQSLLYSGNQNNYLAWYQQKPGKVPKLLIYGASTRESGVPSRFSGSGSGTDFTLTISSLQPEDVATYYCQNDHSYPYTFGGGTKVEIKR and give its measured Relative activity, KU812-IL5 production by oxidized IL33.
137

Record: 5887-41-H1L0 (antibody, human IgG4 S228P, kappa, V domains shown, Humanized antibody) VH: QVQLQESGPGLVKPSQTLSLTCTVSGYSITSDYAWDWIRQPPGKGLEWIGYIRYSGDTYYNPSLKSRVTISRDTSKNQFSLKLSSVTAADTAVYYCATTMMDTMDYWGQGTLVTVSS VL: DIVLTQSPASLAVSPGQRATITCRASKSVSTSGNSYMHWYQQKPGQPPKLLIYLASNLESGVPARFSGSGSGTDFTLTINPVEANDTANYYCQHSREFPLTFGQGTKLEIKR
65.4

What do we get for 5888-153-H3L2 (antibody, human IgG4 S228P, kappa, V domains shown, Humanized antibody) VH: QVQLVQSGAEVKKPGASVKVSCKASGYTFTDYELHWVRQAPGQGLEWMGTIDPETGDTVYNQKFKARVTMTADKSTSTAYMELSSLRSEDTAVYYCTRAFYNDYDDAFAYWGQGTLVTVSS VL: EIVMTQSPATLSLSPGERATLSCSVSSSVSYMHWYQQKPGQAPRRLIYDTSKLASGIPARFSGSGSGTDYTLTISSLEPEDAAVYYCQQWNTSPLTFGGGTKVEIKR ?
127

Same again, this time with 5888-153-H3L1 (antibody, human IgG4 S228P, kappa, V domains shown, Humanized antibody) VH: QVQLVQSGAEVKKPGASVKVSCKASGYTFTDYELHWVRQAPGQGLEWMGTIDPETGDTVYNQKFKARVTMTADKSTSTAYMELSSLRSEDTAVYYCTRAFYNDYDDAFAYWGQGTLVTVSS VL: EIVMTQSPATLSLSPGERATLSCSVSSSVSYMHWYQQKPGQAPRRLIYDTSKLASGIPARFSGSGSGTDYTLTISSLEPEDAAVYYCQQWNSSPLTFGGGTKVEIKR
162

5886-156-H1L0 (antibody, human IgG4 S228P, kappa, V domains shown, Humanized antibody expressed in CHO-K1, purified by protein A) VH: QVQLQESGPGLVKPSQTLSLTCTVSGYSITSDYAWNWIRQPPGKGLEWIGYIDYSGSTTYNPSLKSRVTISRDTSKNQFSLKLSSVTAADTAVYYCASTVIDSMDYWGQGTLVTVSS VL: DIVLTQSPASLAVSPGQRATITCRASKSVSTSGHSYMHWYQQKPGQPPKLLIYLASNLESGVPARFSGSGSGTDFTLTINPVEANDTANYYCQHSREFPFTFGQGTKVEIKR , same question.
77.5

One more binder: 5888-379-H2L1 (antibody, human IgG4 S228P, kappa, V domains shown, Humanized antibody) VH: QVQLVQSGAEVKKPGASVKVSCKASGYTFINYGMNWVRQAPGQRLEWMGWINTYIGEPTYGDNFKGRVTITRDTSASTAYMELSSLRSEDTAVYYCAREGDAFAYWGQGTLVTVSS VL: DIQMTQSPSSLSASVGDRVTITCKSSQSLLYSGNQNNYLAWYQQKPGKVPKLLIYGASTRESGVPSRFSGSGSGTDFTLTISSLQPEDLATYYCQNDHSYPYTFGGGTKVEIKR
96.8

Next entry: 5888-116-H0L1 (antibody, human IgG4 S228P, kappa, V domains shown, Humanized antibody) VH: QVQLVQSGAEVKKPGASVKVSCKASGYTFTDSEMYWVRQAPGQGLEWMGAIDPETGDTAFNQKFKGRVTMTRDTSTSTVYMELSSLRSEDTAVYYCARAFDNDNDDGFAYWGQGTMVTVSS VL: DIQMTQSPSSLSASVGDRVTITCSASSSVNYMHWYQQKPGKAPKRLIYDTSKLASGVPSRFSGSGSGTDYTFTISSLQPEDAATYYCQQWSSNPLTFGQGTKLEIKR
614
